# MEASUREMENT NOTES: Vitamin B6 (PLP; pyridoxal phosphate) trapping
# Type: biochemical
# ASSAY SETUP: 500 μM compound, 50 μM PLP, PBS
MEASURED QUANTITY: PLP trapping

[[record]]
compound = "c1ccc(-c2nnnn2CN2CCOCC2)cc1"
measured = "none"

[[record]]
compound = "OCn1nnnc1-c1ccccc1"
measured = "none"

[[record]]
compound = "CN1C(=O)C2N=NN(Cn3nnnc3-c3ccccc3)C2C1=O (stereo not shown)"
measured = "none"


----------
# System: pentosidine formation
# MEASUREMENT NOTES: AGEs (pentosidine) formation inhibiting effect in plasma from dialysis patients
# Format: biochemical, human
# ASSAY SETUP: plasma from the patients with dialysis
MEASURED QUANTITY: pentosidine formation suppression

Consider the following illustrative entries.
[[record]]
compound = "CN1CCN(Cn2nnnc2-c2ccccc2)CC1"
system_name = "pentosidine formation"
measured_quantity = "pentosidine formation suppression"
measured = "suppressed remarkably"

[[record]]
compound = "OCn1nnnc1-c1ccccc1"
system_name = "pentosidine formation"
measured_quantity = "pentosidine formation suppression"
measured = "suppressed remarkably"

[[record]]
compound = "c1ccc(-c2nnnn2CN2CCN(Cn3nnnc3-c3ccccc3)CC2)cc1"
system_name = "pentosidine formation"
measured_quantity = "pentosidine formation suppression"
measured = "suppressed remarkably"

[[record]]
compound = "CN1C(=O)C2N=NN(Cn3nnnc3-c3ccccc3)C2C1=O (stereo not shown)"
system_name = "pentosidine formation"
measured_quantity = "pentosidine formation suppression"
measured = "suppressed remarkably"

[[record]]
compound = "c1ccc(-c2nnnn2CN2CCNCC2)cc1"
system_name = "pentosidine formation"
measured_quantity = "pentosidine formation suppression"
measured = "suppressed remarkably"

[[record]]
compound = "c1ccc(-c2nnnn2CN2CCSCC2)cc1"
system_name = "pentosidine formation"
measured_quantity = "pentosidine formation suppression"
measured = "suppressed remarkably"


Prompt line: Record request: pentosidine formation suppression value, item c1ccc(-c2nnnn2CN2CCOCC2)cc1
Response line: suppressed remarkably

----------
Consider the following compounds; for each one, report its LD50.
# MEASUREMENT NOTES: Acute toxicity examination, single oral administration to mouse
# ASSAY SETUP: male, in vivo, ICR mice, single oral administration

Prompt line: Recorded LD50 for OCn1nnnc1-c1ccccc1 , please?
Response line: > 2000 mg/kg

Prompt line: Could you tell me which LD50 is on file for c1ccc(-c2nnnn2CN2CCOCC2)cc1 ?
Response line: > 1000 mg/kg

The measured values listed here are drawn from patent US20070161691A1.
